Tested on: isolated right ventricular papillary muscle of the rabbit
Assay: Cardiotoxic effect: effective refractory period (ERP) in vitro
Details: 1 μM, papillary muscle paced at 1 Hz; vs. baseline
Procedure: The cardiotoxic effect was determined in isolated right ventricular papillary muscle of the rabbit in vitro. […] The effective refractory period (ERP) was measured in isolated right ventricular papillary muscle of the rabbit in vitro. The contractions of papillary muscle preparations obtained from New Zealand rabbits weighing 2.5–3.2 kg were evaluated. The contractions (isometrically paced at 1 Hz) were recorded by 4-channel Hugo Sachs apparatus. […]
quantity: % change of ERP (1 μM) (%)
Provide only the numeric value, understood in %.

These solved cases illustrate the format of a correct answer.
compound	quantity	val
Cn1ncc(NCCN2CCC(c3noc4cc(F)ccc34)CC2)cc1=O	% change of ERP (1 μM)	6.1
Cn1ncc(NCCN2CCC(c3noc4cc(F)ccc34)CC2)c(Cl)c1=O	% change of ERP (1 μM)	11.1
Cn1ncc(NCCCN2CCC(c3noc4cc(F)ccc34)CC2)c(Cl)c1=O	% change of ERP (1 μM)	5.3
COc1cc(C(C)=O)ccc1OCCCN1CCC(c2noc3cc(F)ccc23)CC1 [Iloperidone, reference compound]	% change of ERP (1 μM)	31.9
O=c1cc(NCCN2CCC(c3noc4cc(F)ccc34)CC2)cn[nH]1	% change of ERP (1 μM)	0.4

The record that follows has no % change of ERP (1 μM) shown yet.
### Prompt Suppose we examine the compound "O=c1[nH]ncc(NCCN2CCC(c3noc4cc(F)ccc34)CC2)c1Cl" ; what % change of ERP (1 μM) value has been reported?
### Response 1.5

----------
Property: melting point; scope: individual compounds

compound.structure	quantity	val
Cn1ncc(NCCCN2CCC(c3noc4cc(F)ccc34)CC2)c(Cl)c1=O	melting point	200 to 202 °C
Cn1ncc(NCCN2CCC(c3noc4cc(F)ccc34)CC2)cc1=O	melting point	200 to 202 °C

### Prompt Consider the compound "Cn1ncc(Cl)c(NCCN2CCC(c3noc4cc(F)ccc34)CC2)c1=O" and give its measured melting point.
### Response 108 to 109 °C

### Prompt Please look up its melting point: "O=c1cc(NCCN2CCC(c3noc4cc(F)ccc34)CC2)cn[nH]1"
### Response 97 to 99 °C

----------
System: male Wistar rats
Test: Cataleptogenous effect (method of Morpurgo)
Assay type: in vivo, rat
Settings: rats, po., minimum effective dosis inducing catalepsy
MED in mg/kg po. listing for selected molecules.

Recorded MED in mg/kg po., per entry:
molecule	MED in mg/kg po.
O=c1[nH]ncc(NCCN2CCC(c3noc4cc(F)ccc34)CC2)c1Cl [Example 8]	~10 mg/kg
O=c1cc(NCCN2CCC(c3noc4cc(F)ccc34)CC2)cn[nH]1 [Example 9]	>10 mg/kg
Cn1ncc(NCCN2CCC(c3noc4cc(F)ccc34)CC2)cc1=O [Example 6]	>30 mg/kg

Please look at the following molecule next.
### Prompt Can you share its MED in mg/kg po.? I mean this molecule: Cn1ncc(NCCCN2CCC(c3noc4cc(F)ccc34)CC2)cc1=O [Example 7]
### Response ~30 mg/kg
